Parameter: inhibition. Scope: all listed entries.
# Target Entity: Amyloid-beta precursor protein (Homo sapiens, UniProt P05067)
# Sequence (P05067 whole entry): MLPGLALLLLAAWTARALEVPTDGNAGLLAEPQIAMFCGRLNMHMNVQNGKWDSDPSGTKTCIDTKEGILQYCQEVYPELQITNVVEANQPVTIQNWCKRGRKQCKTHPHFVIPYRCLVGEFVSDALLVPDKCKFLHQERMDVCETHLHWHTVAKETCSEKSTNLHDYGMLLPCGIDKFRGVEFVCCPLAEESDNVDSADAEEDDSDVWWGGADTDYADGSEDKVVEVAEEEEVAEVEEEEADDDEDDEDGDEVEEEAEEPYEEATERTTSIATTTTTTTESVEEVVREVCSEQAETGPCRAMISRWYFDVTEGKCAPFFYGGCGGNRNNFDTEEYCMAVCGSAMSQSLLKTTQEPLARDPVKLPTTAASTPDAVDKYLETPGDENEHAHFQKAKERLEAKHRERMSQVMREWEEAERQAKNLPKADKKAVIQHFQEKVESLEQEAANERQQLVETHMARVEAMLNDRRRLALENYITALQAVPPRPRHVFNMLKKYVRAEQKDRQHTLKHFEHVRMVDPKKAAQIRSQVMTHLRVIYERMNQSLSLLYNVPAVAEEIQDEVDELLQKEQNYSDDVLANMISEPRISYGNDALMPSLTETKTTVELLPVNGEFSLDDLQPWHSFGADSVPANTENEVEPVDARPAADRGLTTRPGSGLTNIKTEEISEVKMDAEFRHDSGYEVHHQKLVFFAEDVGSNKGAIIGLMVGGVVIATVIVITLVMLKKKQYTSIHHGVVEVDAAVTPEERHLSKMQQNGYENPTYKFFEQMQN
# Assay Comment: Inhibition of human amyloid beta (1 to 40) fibrillization at 100 uM measured every 15 mins by Thioflavin-T fluorescence assay relative to control

                           structure_string  reading
0  O=C(O)c1cc(C(=O)N2CCCCC2)c(Cl)cc1NCc1ccco1      11%
1  CNS(=O)(=O)c1cc(-c2noc(=O)[nH]2)c(NCc2ccco2)cc1Cl    20.2%
2       NC(=O)c1cc(C(=O)O)c(NCc2ccco2)cc1Cl    32.4%
3  CNS(=O)(=O)c1cc(-c2nnn[nH]2)c(NCc2ccco2)cc1Cl    14.1%

Now look at this one.
Find the measured inhibition of O=C(O)c1cc(S(=O)(=O)Nc2ccccc2)c(Cl)cc1NCc1ccco1 and report it. 17.4%

---

# Assay Comment: Drug concentration in CD-1 mouse brain at 5 mg/kg, po measured after 0.5 hrs by LC-MS/MS analysis
# Assay type: ADME, organism-based
Here the recorded concentration at 0.5 h is given for each entry.
Field: numeric (ng/g). Do not append units.

In [3]: df
Out[3]:
                                   compound  reading
0  CN(Cc1ccccc1)S(=O)(=O)c1cc(C(=O)O)c(NCc2ccco2)cc1Cl      0.8
1  CNS(=O)(=O)c1cc(C(=O)N(C)C)c(NCc2ccco2)cc1Cl     61.1
2  NS(=O)(=O)c1cc(C(=O)O)c(NCc2ccco2)cc1Cl [FUROSEMIDE]      8.7

Next compound, please.
Please report concentration at 0.5 h for the following compound: CNS(=O)(=O)c1cc(C(N)=O)c(NCc2ccco2)cc1Cl 5.2

---

# Target Entity: Amyloid-beta precursor protein (Homo sapiens, UniProt P05067)
# Assay Comment: Inhibition of human biotinylated amyloid beta (1 to 42) oligomerization measured after 1 hr by ELISA
Property: IC50

As a guide, the following entries are already answered.
>>> df
                                   compound                             target_entity     reading
0  O=C(O)c1cc(S(=O)(=O)NCc2ccccc2)c(Cl)cc1NCc1ccco1  Amyloid-beta precursor protein (Homo sapiens, UniProt P05067)  Not Active
1  CNS(=O)(=O)c1cc(C(O)C(F)(F)F)c(NCc2ccco2)cc1Cl (stereo unspecified)  Amyloid-beta precursor protein (Homo sapiens, UniProt P05067)  Not Active
2  Cc1ccc(CNS(=O)(=O)c2cc(C(=O)O)c(NCc3ccco3)cc2Cl)cc1  Amyloid-beta precursor protein (Homo sapiens, UniProt P05067)  Not Active
3  OC(c1ccc(Cl)cc1NCc1ccco1)C(F)(F)F (stereo unspecified)  Amyloid-beta precursor protein (Homo sapiens, UniProt P05067)  Not Active
4  COc1ccc(C(O)C(F)(F)F)c(NCc2ccco2)c1 (stereo unspecified)  Amyloid-beta precursor protein (Homo sapiens, UniProt P05067)  Not Active

Using the record for NC(=O)c1cc(C(=O)O)c(NCc2ccco2)cc1Cl , state its measured IC50. Not Active

Quote IC50 reported for O=C(O)c1cc(C(=O)N2CCCCC2)c(Cl)cc1NCc1ccco1 please. Not Active

Give the reported value of IC50 for this record: O=C(O)c1cc(S(=O)(=O)NCCc2ccccc2)c(Cl)cc1NCc1ccco1 Not Active

Specify IC50 for O=C(O)c1cc(S(=O)(=O)NC2CC2)c(Cl)cc1NCc1ccco1 and stop. Not Active
